target: UniProtKB P00734
parameter: Ki (nM)
Report as a plain number; the unit nM is understood.

Prompt: Please provide the recorded Ki for CCCCCCOC(=O)NC(=N)c1ccc(NCc2nc3cc(C(=O)N(CCC(=O)OCC)c4ccccn4)ccc3n2C)cc1 [DABIGATRAN ETEXILATE] , tested on UniProtKB P00734.
Completion: 4.5

###

system: Platelet; experiment: Inhibition of thrombin-induced rabbit platelet aggregation compound pre-incubated in rabbit liver microsomal suspension; assay type: functional, microsomes, Microsome; conditions: Oryctolagus cuniculus
parameter: pIC50
Note on pIC50: it is the negative log10 of concentration, concentration in mol/L.

Consider the reported pIC50 for these molecules:
INSERT INTO measurements (molecule, tested_system, parameter, observed_value) VALUES
  ('CCCCCCOC(=O)/N=C(/N)c1ccc(NCc2nc3cc(C(=O)N(CCC(=O)Oc4ccc(/C=C/C(=O)OC)cc4OC)c4ccccn4)ccc3n2C)cc1', 'Platelet', 'pIC50', 6.54),
  ('CCOC(=O)/N=C(/N)c1ccc(NCc2nc3cc(C(=O)N(CCC(=O)Oc4ccc(/C=C/C(=O)OC)cc4OC)c4ccccn4)ccc3n2C)cc1', 'Platelet', 'pIC50', 6.34),
  ('COC(=O)/C=C/c1ccc(OC(=O)CCN(C(=O)c2ccc3c(c2)nc(CNc2ccc(/C(N)=N\C(=O)OCc4ccccc4)cc2)n3C)c2ccccn2)c(OC)c1', 'Platelet', 'pIC50', 6.16),
  ('COC(=O)/C=C/c1ccc(OC(=O)CCN(C(=O)c2ccc3c(c2)nc(CNc2ccc(/C(N)=N\C(=O)OC)cc2)n3C)c2ccccn2)c(OC)c1', 'Platelet', 'pIC50', 6.08);

Continue with the next molecule.
Prompt: State the recorded pIC50 for this entry: CCCCCCOC(=O)NC(=N)c1ccc(NCc2nc3cc(C(=O)N(CCC(=O)OCC)c4ccccn4)ccc3n2C)cc1 [DABIGATRAN ETEXILATE]
Completion: 6.47
